Reported protein stability index by item:
B1: FAM107A (parent)
chain: HRRGLGVDSKPELQRVLEHRRRNQ

# Variants of: B1
# TEST: protein stability index of a GFP-peptide fusion (GPS, HEK-293T) (PSI 1-6); higher = more stable;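 further: lentivirally expressed fusions sorted by FACS into six bins by GFP to DsRed ratio, PSI derived from sequencing read proportions per bin multiplied by bin number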
# REPORTED_CONDITIONS: c terminus: a fixed tail appended
REPORTED_ENDPOINT: protein stability index

INSERT INTO assay_data (mutation_string, observed) VALUES
  ('P11M', 3.99),
  ('K10G', 4.5),
  ('Q24S', 3.57),
  ('N23C', 2.37),
  ('H19P', 4.29),
  ('L13D', 5.59),
  ('L17W', 3.71),
  ('S9V', 3.98),
  ('V7F', 3.42),
  ('R3S', 4.91),
  ('Q24D', 3.81),
  ('L5R', 5.2),
  ('R15Y', 4.79),
  ('E18M', 2.48),
  ('R3N', 4.25),
  ('G6T', 2.78),
  ('R15S', 4.43),
  ('R3F', 3.9),
  ('G6K', 2.56),
  ('L5M', 4.52),
  ('Q24P', 2.74),
  ('R21D', 4.11),
  ('L17N', 5.25),
  ('N23F', 4.65),
  ('H19W', 1.53),
  ('H1T', 4.04),
  ('R22N', 3.48),
  ('R2C', 4.78),
  ('L17S', 4.79),
  ('R2N', 4.2),
  ('K10M', 4.27),
  ('P11Q', 3.73),
  ('L17Y', 4.56),
  ('L17V', 4.17),
  ('S9Y', 4.16),
  ('L13T', 5.23),
  ('R15D', 4.26),
  ('V16T', 3.71),
  ('L5K', 4.04),
  ('G4S', 3.63),
  ('R2T', 4.95),
  ('S9R', 4.8),
  ('V7Y', 4.23),
  ('Q14N', 4.5),
  ('Q24A', 3.88),
  ('R22F', 3.43),
  ('R22C', 3.6),
  ('L17P', 4.7);
